assayDetails: CD spectroscopy, secondary structure content (DichroWeb)
Format: physicochemical
testConditions: CD in SDS micelles (20 mM), peptide 50 μM, 25 °C, DichroWeb
Bridge positions count the residues as written; N and C are the ends. Square brackets hold non-standard residues; d marks the D form. Peptide text beside a SMILES is read from it.
Exercise: for every item that follows, state its recorded random.
Report the value in % with no unit label.

Specify measured random for CC[C@H](C)[C@H](NC(=O)[C@H](CCCNC(=N)N)NC(=O)[C@@H]1CCCCn2cc(nn2)C[C@H](NC(=O)[C@H](Cc2ccccc2)NC(=O)[C@H](Cc2c[nH]c3ccccc23)NC(=O)[C@@H]2CCCN2C(=O)[C@@H](NC(=O)[C@@H](N)Cc2ccccc2)C(C)C)C(=O)N[C@@H](CCCCN)C(=O)N[C@@H](Cc2ccccc2)C(=O)NC(CC(C)C)C(=O)N1)C(=O)N[C@@H](CC(C)C)C(N)=O (stereo in doubt) .
16

Specify measured random for CC[C@H](C)[C@H](NC(=O)[C@H](CCCNC(=N)N)NC(=O)[C@@H]1CCC(=O)NCCCC[C@H](NC(=O)[C@H](Cc2ccccc2)NC(=O)[C@H](Cc2c[nH]c3ccccc23)NC(=O)[C@@H]2CCCN2C(=O)[C@@H](NC(=O)[C@@H](N)Cc2ccccc2)C(C)C)C(=O)N[C@@H](CCCCN)C(=O)N[C@@H](Cc2ccccc2)C(=O)N[C@H](CC(C)C)C(=O)N1)C(=O)N[C@@H](CC(C)C)C(N)=O [compound 12] (H-FVPWFKKF[dL]ERIL-NH2; lactam 6-10) .
5

Specify measured random for CC[C@H](C)[C@H](NC(=O)[C@H](CCCNC(=N)N)NC(=O)[C@]1(C)CCCC=CCCC[C@](C)(NC(=O)[C@H](Cc2ccccc2)NC(=O)[C@H](Cc2c[nH]c3ccccc23)NC(=O)[C@@H]2CCCN2C(=O)[C@@H](NC(=O)[C@@H](N)Cc2ccccc2)C(C)C)C(=O)N[C@@H](CCCCN)C(=O)N[C@@H](Cc2ccccc2)C(=O)N[C@H](CC(C)C)C(=O)N1)C(=O)N[C@@H](CC(C)C)C(N)=O .
28

Specify measured random for CC[C@H](C)[C@H](NC(=O)[C@H](CCCNC(=N)N)NC(=O)[C@@H]1CCCCNC(=O)CC[C@H](NC(=O)[C@H](Cc2ccccc2)NC(=O)[C@H](Cc2c[nH]c3ccccc23)NC(=O)[C@@H]2CCCN2C(=O)[C@@H](NC(=O)[C@@H](N)Cc2ccccc2)C(C)C)C(=O)N[C@@H](CCCCN)C(=O)N[C@@H](Cc2ccccc2)C(=O)N[C@H](CC(C)C)C(=O)N1)C(=O)N[C@@H](CC(C)C)C(N)=O [compound 24] (H-FVPWFEKF[dL]KRIL-NH2; lactam 6-10) .
0
